Target: glucosylceramide synthase (Homo sapiens, UniProt Q16739)
Construct: made in house; host or cells: Expi293F cells (transient expression, pcDNA3.3-TOPO vector); microsome fraction used as enzyme source
Sequence (Q16739 whole entry): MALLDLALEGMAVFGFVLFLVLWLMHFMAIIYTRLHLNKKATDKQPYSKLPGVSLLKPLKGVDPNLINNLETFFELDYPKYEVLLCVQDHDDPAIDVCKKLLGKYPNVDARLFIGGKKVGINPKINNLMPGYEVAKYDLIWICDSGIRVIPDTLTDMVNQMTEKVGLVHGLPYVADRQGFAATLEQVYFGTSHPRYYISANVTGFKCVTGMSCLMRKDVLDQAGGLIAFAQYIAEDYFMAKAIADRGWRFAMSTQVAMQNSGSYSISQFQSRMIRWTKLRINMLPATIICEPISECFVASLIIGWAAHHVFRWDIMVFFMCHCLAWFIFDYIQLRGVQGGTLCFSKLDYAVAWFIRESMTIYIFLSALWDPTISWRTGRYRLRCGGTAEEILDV
Assay: Glucosylceramide synthase (GCS) enzyme assay, microsome fraction, C8 glucosylceramide quantified by Rapidfire MS/MS
Type: biochemical
Conditions: test compound 10 μM; 1.7 μM UDP-glucose, 3 μM C8 ceramide; room temperature 60 min; read-out: GCS enzyme inhibitory rate at 10 μM (%) (% of control)
readoutName: inhibition at 10 µM (%)

compound=Cn1cc2c(c(-c3ccccc3OCC(F)(F)F)c1=O)CN(c1ccc(C(C)(C)O)cc1)C2=O testvalue=100
compound=O=C1c2ccnc(-c3ccc(F)cc3OC(F)F)c2CN1c1ccc(OC(F)(F)F)cn1 testvalue=74
compound=CSc1ccccc1-c1nccc2c1CN(c1ccc(F)cc1)C2=O testvalue=93
compound=O=C1c2ccnc(-c3ccc(F)cc3OCC(F)(F)F)c2CN1c1cnn(C2CC2)c1 testvalue=97
compound=O=C1c2ccnc(-c3ccccc3OC(F)F)c2CN1c1ccc(OC(F)(F)F)cn1 testvalue=95
compound="CC(O)c1ccc(N2Cc3c(ccnc3-c3ccccc3OCC(F)(F)F)C2=O)cc1 (racemic)" testvalue=99
compound=O=C1c2ccnc(-c3ccccc3OCC3CC(F)(F)C3)c2CN1c1ccc(F)cc1 testvalue=98
compound=CS(=O)(=O)c1ccc(N2Cc3c(ccnc3-c3ccccc3OCC(F)(F)F)C2=O)cc1 testvalue=98
compound="O=C1c2ccnc(-c3ccc(F)cc3OCC(F)(F)F)c2CN1c1ccc(C(O)C(F)F)cc1 (single isomer, unassigned) [Example 278]" testvalue=99
compound="O=C1c2ccnc(-c3ccc(F)cc3OCC(F)(F)F)c2CN1c1ccc(C2(O)CCOC2)c(F)c1 (racemic)" testvalue=96
compound=O=C1c2ccnc(-c3ccc(F)cc3OCC(F)(F)F)c2CN1c1ccc(C2(O)COC2)cc1 testvalue=93
compound=Cn1nc2c(c1-c1ccccc1OCC(F)(F)F)CN(c1ccc(F)cc1)C2 testvalue=66
compound="CC(c1ccc(N2Cc3c(ccnc3-c3ccc(F)cc3OCC(F)(F)F)C2=O)cc1)N1CCCC1=O (racemic)" testvalue=82
compound=O=C1c2ccnc(-c3ccccc3OCC(F)(F)F)c2CN1c1ccc(OC(F)(F)F)cn1 testvalue=100
compound=CC(C)(O)COc1ccc(N2Cc3c(ccnc3-c3ccccc3OCC(F)(F)F)C2=O)cn1 testvalue=96
compound="O=C1c2ccnc(-c3ccc(F)cc3OCC(F)(F)F)c2CN1c1ccc(C(O)C(F)(F)F)cc1 (single isomer, unassigned) [Example 285]" testvalue=97

----------
Target: glucosylceramide synthase (Homo sapiens, UniProt Q16739)
Construct: made in house; host or cells: Expi293F cells (transient expression, pcDNA3.3-TOPO vector); microsome fraction used as enzyme source
Test: Glucosylceramide synthase (GCS) enzyme assay, microsome fraction, C8 glucosylceramide quantified by Rapidfire MS/MS
Format: biochemical
Details: test compound 10 μM; 1.7 μM UDP-glucose, 3 μM C8 ceramide; room temperature 60 min; read-out: GCS enzyme inhibitory rate at 10 μM (%) (% of control)
readoutName: inhibition at 10 µM (%)

compound=O=C1c2[nH]nc(-c3ccc(F)cc3OCC(F)(F)F)c2CN1c1ccc(F)cc1 testvalue=55
compound="Cc1cncc(OCC(F)(F)F)c1-c1nccc2c1CN(c1ccc(OC(F)F)cc1)C2=O [Example 175, ditrifluoroacetate]" testvalue=100
compound=CCS(=O)(=O)c1ccc(N2Cc3c(ccnc3-c3ccccc3OCC(F)(F)F)C2=O)cc1 testvalue=99
compound=Cn1ccc(N2Cc3c(ccnc3-c3ccc(F)cc3OCC(F)(F)F)C2=O)n1 testvalue=89
compound=O=C1c2ccnc(-c3ccccc3OC(F)F)c2CN1c1ccc(OC(F)F)nc1 testvalue=91
compound=O=C1c2ccnc(-c3ccc(F)cc3OCC(F)(F)F)c2CN1c1ccc(O[C@@H]2CCOC2)cc1 testvalue=99
compound=O=C1c2ccnc(-c3ccccc3N3CCOCC3)c2CN1c1ccc(F)cc1 testvalue=91
compound=O=C1c2ccnc(-c3ccncc3OCC(F)(F)F)c2CN1c1ccc(C(O)(C(F)F)C(F)F)cc1 testvalue=99
compound=O=C1c2ccnc(-c3ccccc3OCC(F)F)c2CN1c1ccc(C2(O)CCC2)cc1 testvalue=100
compound=O=C1c2ccnc(-c3ccccc3OCC(F)(F)F)c2CN1c1ccc(C2(F)COC2)cc1 testvalue=100
compound=COc1ccccc1-c1nccc2c1CN(c1ccc(C3CC3)cc1)C2=O testvalue=99
compound=COc1ccccc1-c1nccc2c1CN(c1ccc(OC(F)F)nc1)C2=O testvalue=93
compound=CC(C)(O)COc1ccc(N2Cc3c(cn(C(F)F)c(=O)c3-c3ccccc3OCC(F)(F)F)C2=O)cc1 testvalue=100
compound=O=C1c2ccnc(-c3ccc(F)cc3OCC3COC3)c2CN1c1ccc(OC(F)F)cc1 testvalue=97
compound=CC(C)(O)c1ccc(N2Cc3c(ccnc3-c3ccncc3OCC(F)(F)F)C2=O)cc1F testvalue=96
compound=O=C1C2=C(CN1c1ccc(F)cc1)C(c1ccc(F)cc1OCC(F)(F)F)=NCCN2 testvalue=63
compound=O=C1c2ccnc(-c3ccccc3OCC(F)(F)F)c2CN1c1ccc(C2(O)CC2)cn1 testvalue=100
